measurement.notes: Blocking experiments: inhibition of radiotracer accumulation in the rat by coadministered compound
Assay type: in vivo, rat (male Wistar)
condition.info: rat, lung, iv, rat, iv, 60 min, + (+)-7 HCl 0.53 mg/kg; read-out: radioactivity in lung
measure: tissue uptake at 1 h (%ID/g)
Answer in %ID/g, number only, no unit symbol.

Query: Tell me the measured tissue uptake at 1 h of OC(Cc1ccc([125I])cc1)CN1CCC(c2ccccc2)CC1 (single isomer, unassigned; (-)) [(-)-4-[^125 l]HIPP] , please.
Result: 1.64

---

Measured tissue uptake at 1 h by item
measurement.notes: Blocking experiments: inhibition of radiotracer accumulation in the rat by coadministered compound
Format: in vivo, rat (male Wistar)
condition.info: rat, brain, iv, rat, iv, 60 min, radiotracer only (control); read-out: radioactivity in brain
Answer in %ID/g, number only, no unit symbol.

Consider the following illustrative entries.
• OC(Cc1cccc([125I])c1)CN1CCC(c2ccccc2)CC1 (single isomer, unassigned; (+)) [(+)-[^125 l]12] = 0.76
• OC(CN1CCC(c2ccccc2)CC1)c1ccc([125I])cc1 (single isomer, unassigned; (+)) [(+)-[^125 l]13] = 0.87

Query: Tell me the measured tissue uptake at 1 h of OC(Cc1ccc([125I])cc1)CN1CCC(c2ccccc2)CC1 (single isomer, unassigned; (-)) [(-)-4-[^125 l]HIPP] , please.
Result: 0.93

---

measurement.notes: Tissue distribution (biodistribution) of radioiodinated compound in the rat
condition.info: rat, kidney, iv, radioactivity in kidney, 180 min
measure: tissue uptake at 3 h (%ID/g)
Answer in %ID/g, number only, no unit symbol.

- OC(Cc1ccc([125I])cc1)CN1CCC(c2ccccc2)CC1 (single isomer, unassigned; (+)) [(+)-4-[^125 l]HIPP]: 1.81

Next molecule, tissue uptake at 3 h to be filled in.
Query: Tell me the measured tissue uptake at 3 h of OC(Cc1cccc([125I])c1)CN1CCC(c2ccccc2)CC1 (single isomer, unassigned; (+)) [(+)-[^125 l]12] , please.
Result: 0.75

---

measurement.notes: Blocking experiments: inhibition of radiotracer accumulation in the rat by coadministered compound
Type: in vivo, rat (male Wistar)
condition.info: rat, blood, iv, rat, iv, 60 min, + cold (dl)3-HIPP HCl 0.53 mg/kg; read-out: radioactivity in blood
measure: tissue uptake at 1 h (%ID/g)
Answer in %ID/g, number only, no unit symbol.

Query: Tell me the measured tissue uptake at 1 h of OC(Cc1cccc([125I])c1)CN1CCC(c2ccccc2)CC1 (single isomer, unassigned; (+)) [(+)-[^125 l]12] , please.
Result: 0.13

---

Measured radioactivity in muscle by item
measurement.notes: Tissue distribution (biodistribution) of radioiodinated compound in the rat
condition.info: rat, iv, 180 min
Answer in % dose/g, number only, no unit symbol.

Consider the following illustrative entries.
* OC(Cc1ccc([125I])cc1)CN1CCC(c2ccccc2)CC1 (single isomer, unassigned; (-)) [(-)-4-[^125 l]HIPP] | 0.16
* OC(Cc1cccc([125I])c1)CN1CCC(c2ccccc2)CC1 (single isomer, unassigned; (-)) [(-)-[^125 l]12] | 0.08

Query: Tell me the measured radioactivity in muscle of OC(CN1CCC(c2ccccc2)CC1)c1ccc([125I])cc1 (single isomer, unassigned; (-)) [(-)-[^125 l]13] , please.
Result: 0.05

Query: Next up: OC(CN1CCC(c2ccccc2)CC1)c1ccc([125I])cc1 (single isomer, unassigned; (+)) [(+)-[^125 l]13]
Result: 0.13

---

measurement.notes: Tissue distribution (biodistribution) of radioiodinated compound in the rat
condition.info: rat, spleen, iv, radioactivity in spleen, 30 min
measure: tissue uptake at 0.5 h
Put your answer as a value accompanied by its unit after it.

Query: Tell me the measured tissue uptake at 0.5 h of OC(Cc1ccc([125I])cc1)CN1CCC(c2ccccc2)CC1 (single isomer, unassigned; (+)) [(+)-4-[^125 l]HIPP] , please.
Result: 1.28 %ID/g

---

Measured radioactivity in kidney by item
measurement.notes: Tissue distribution (biodistribution) of radioiodinated compound in the rat
condition.info: rat, iv, 180 min
Answer in % dose/g, number only, no unit symbol.

* OC(CN1CCC(c2ccccc2)CC1)c1ccc([125I])cc1 (single isomer, unassigned; (-)) [(-)-[^125 l]13] | 0.74
* OC(Cc1ccc([125I])cc1)CN1CCC(c2ccccc2)CC1 (single isomer, unassigned; (-)) [(-)-4-[^125 l]HIPP] | 1.63
* OC(CN1CCC(c2ccccc2)CC1)c1ccc([125I])cc1 (single isomer, unassigned; (+)) [(+)-[^125 l]13] | 1.53

Query: Tell me the measured radioactivity in kidney of OC(Cc1cccc([125I])c1)CN1CCC(c2ccccc2)CC1 (single isomer, unassigned; (-)) [(-)-[^125 l]12] , please.
Result: 0.59

---

measurement.notes: Blocking experiments: inhibition of radiotracer accumulation in the rat by coadministered compound
Assay type: in vivo, rat (male Wistar)
condition.info: rat, heart, iv, rat, iv, 60 min, + (dl)-vesamicol HCl 0.3 (Table 3) or 0.31 mg/kg; read-out: radioactivity in heart
Measured tissue uptake at 1 h by item
Answer in %ID/g, number only, no unit symbol.

Query: Tell me the measured tissue uptake at 1 h of OC(CN1CCC(c2ccccc2)CC1)c1ccc([125I])cc1 (single isomer, unassigned; (+)) [(+)-[^125 l]13] , please.
Result: 0.08

Query: Next up: OC(Cc1ccc([125I])cc1)CN1CCC(c2ccccc2)CC1 (single isomer, unassigned; (-)) [(-)-4-[^125 l]HIPP]
Result: 0.13

Query: Next up: OC(Cc1cccc([125I])c1)CN1CCC(c2ccccc2)CC1 (single isomer, unassigned; (+)) [(+)-[^125 l]12]
Result: 0.13

---

measurement.notes: Blocking experiments: inhibition of radiotracer accumulation in the rat by coadministered compound
Type: in vivo, rat (male Wistar)
condition.info: rat, spleen, iv, rat, iv, 60 min, radiotracer only (control); read-out: radioactivity in spleen
measure: tissue uptake at 1 h

Consider the following illustrative entries.
* OC(Cc1cccc([125I])c1)CN1CCC(c2ccccc2)CC1 (single isomer, unassigned; (+)) [(+)-[^125 l]12] | 1.14 %ID/g
* OC(CN1CCC(c2ccccc2)CC1)c1ccc([125I])cc1 (single isomer, unassigned; (+)) [(+)-[^125 l]13] | 0.88 %ID/g

Next compound, tissue uptake at 1 h to be filled in.
Query: Tell me the measured tissue uptake at 1 h of OC(Cc1ccc([125I])cc1)CN1CCC(c2ccccc2)CC1 (single isomer, unassigned; (-)) [(-)-4-[^125 l]HIPP] , please.
Result: 1.42 %ID/g

---

Measured radioactivity in heart by item
measurement.notes: Tissue distribution (biodistribution) of radioiodinated compound in the rat
condition.info: rat, iv, 180 min

• OC(Cc1cccc([125I])c1)CN1CCC(c2ccccc2)CC1 (single isomer, unassigned; (-)) [(-)-[^125 l]12] = 0.10 % dose/g
• OC(CN1CCC(c2ccccc2)CC1)c1ccc([125I])cc1 (single isomer, unassigned; (+)) [(+)-[^125 l]13] = 0.14 % dose/g
• OC(CN1CCC(c2ccccc2)CC1)c1ccc([125I])cc1 (single isomer, unassigned; (-)) [(-)-[^125 l]13] = 0.05 % dose/g

Next molecule, radioactivity in heart to be filled in.
Query: Tell me the measured radioactivity in heart of OC(Cc1ccc([125I])cc1)CN1CCC(c2ccccc2)CC1 (single isomer, unassigned; (-)) [(-)-4-[^125 l]HIPP] , please.
Result: 0.57 % dose/g

---

measurement.notes: Tissue distribution (biodistribution) of radioiodinated compound in the rat
condition.info: rat, muscle, iv, radioactivity in muscle, 30 min
measure: tissue uptake at 0.5 h
Put your answer as a value accompanied by its unit after it.

Query: Tell me the measured tissue uptake at 0.5 h of OC(Cc1ccc([125I])cc1)CN1CCC(c2ccccc2)CC1 (single isomer, unassigned; (+)) [(+)-4-[^125 l]HIPP] , please.
Result: 0.25 %ID/g

---

measurement.notes: Tissue distribution (biodistribution) of radioiodinated compound in the rat
condition.info: rat, blood, iv, radioactivity in blood, 5 min
measure: tissue uptake at 5 min (%ID/g)
Answer in %ID/g, number only, no unit symbol.

Consider the following illustrative entries.
- OC(Cc1cccc([125I])c1)CN1CCC(c2ccccc2)CC1 (single isomer, unassigned; (+)) [(+)-[^125 l]12]: 0.08
- OC(Cc1ccc([125I])cc1)CN1CCC(c2ccccc2)CC1 (single isomer, unassigned; (+)) [(+)-4-[^125 l]HIPP]: 0.08

Next molecule, tissue uptake at 5 min to be filled in.
Query: Tell me the measured tissue uptake at 5 min of OC(CN1CCC(c2ccccc2)CC1)c1ccc([125I])cc1 (single isomer, unassigned; (+)) [(+)-[^125 l]13] , please.
Result: 0.1
